Experiment: Oral plasma concentration in mice at 100 mg/kg dosage within 4-hr time frame.
Assay type: ADME, organism-based
Parameters: route oral, dose 100 mg/kg
Conditions: mouse
Think of 900 ng/mL as a floor: if Cmax stands on it or above, it is 1.0; beneath it, 0.0.

[
  {
    "input_smiles": "C#C/C=C(\\c1cccc(Cl)c1)c1ccc2nc(N)n(S(=O)(=O)C(C)C)c2c1",
    "category_label": 1.0
  },
  {
    "input_smiles": "C#C/C=C(\\c1ccc(F)c(F)c1)c1ccc2nc(N)n(S(=O)(=O)C(C)C)c2c1",
    "category_label": 1.0
  },
  {
    "input_smiles": "C#C/C=C(\\c1ccc(F)cc1)c1ccc2nc(N)n(S(=O)(=O)C(C)C)c2c1",
    "category_label": 1.0
  },
  {
    "input_smiles": "CC#C/C=C(\\c1cccc(F)c1)c1ccc2nc(N)n(S(=O)(=O)C(C)C)c2c1",
    "category_label": 0.0
  },
  {
    "input_smiles": "C/C=C(\\c1ccccc1)c1ccc2nc(N)n(S(=O)(=O)C(C)C)c2c1",
    "category_label": 1.0
  },
  {
    "input_smiles": "C#C/C=C(\\c1ccc(N(C)C)cc1)c1ccc2nc(N)n(S(=O)(=O)C(C)C)c2c1",
    "category_label": 0.0
  },
  {
    "input_smiles": "C#C/C=C(\\c1ccc(C)cc1)c1ccc2nc(N)n(S(=O)(=O)C(C)C)c2c1",
    "category_label": 0.0
  },
  {
    "input_smiles": "C#C/C=C(\\c1ccc(OC)c(F)c1)c1ccc2nc(N)n(S(=O)(=O)C(C)C)c2c1",
    "category_label": 1.0
  }
]
